Each recorded value in this set is attributed to patent US9663511B2.

- test summary: Blood concentrations and pharmacokinetics after 1 mg/kg i.v. in mice
- Assay type: in vivo, mouse
- measurement setup: mouse, in vivo, iv, 1 mg/kg, mouse, 6 h, individual mice, LLOQ = 1 ng/mL, read-out: Blood Concentrations
- Description: 1 mg/kg of the compound was injected by IV and blood was withdrawn at the times in table 1. The amount of starting compound was quantified by a standard curve using MS/MS determinations.
observed property: concentration at 6 h

[[record]]
smiles_representation = "Cc1nn(C)c2nc(NNC(=O)Nc3cc(Cl)nc(Cl)c3)cc(C(C)C)c12"
observed_property = "concentration at 6 h"
experimental_value = "0.805 ng/mL"


###

- test summary: Microsomal intrinsic clearance
- measurement setup: mouse, liver microsomes, NADPH-free Clint (microsomal intrinsic clearance), mouse microsomes, test conc. 1 μM
microsomal CLint at 1 μM values, listed per item
observed property: microsomal CLint at 1 μM (µL/min/mg)

[[record]]
molecule = "C=CCn1nc(C)c2c(C(C)C)cc(NNC(=O)Nc3cc(Cl)nc(Cl)c3)nc21 [Compound 1]"
experimental_value = 48

[[record]]
molecule = "Cc1nn(C)c2nc(N(CC(=O)O)NC(=O)Nc3cc(Cl)nc(Cl)c3)cc(C(C)C)c12 [Compound 2]"
experimental_value = 9


###

- test summary: Blood concentrations and pharmacokinetics after 1 mg/kg i.v. in mice
- Type: in vivo, mouse
- measurement setup: mouse, in vivo, iv, 1 mg/kg, mouse, 5 min, mean of 3 mice, read-out: Blood Concentrations, Mean S.D.
observed property: concentration at 5 min

[[record]]
compound = "Cc1nn(C)c2nc(NNC(=O)Nc3cc(Cl)nc(Cl)c3)cc(C(C)C)c12 [JTE013]"
experimental_value = "272 ng/mL"


###

- test summary: Blood concentrations and pharmacokinetics after 1 mg/kg i.v. in mice
- Type: in vivo, mouse
- measurement setup: mouse, whole blood, iv, 1 mg/kg, mouse, 4 h, mean (n = 2 for Cmpd-1), read-out: Blood Concentrations, Mean S.D.
observed property: concentration at 4 h (ng/mL)

[[record]]
compound = "C=CCn1nc(C)c2c(C(C)C)cc(NNC(=O)Nc3cc(Cl)nc(Cl)c3)nc21 [Compound 1]"
observed_property = "concentration at 4 h"
unit_info = "ng/mL"
experimental_value = 2.1


###

- test summary: Blood concentrations and pharmacokinetics after 1 mg/kg i.v. in mice
- Type: in vivo, mouse
- measurement setup: mouse, in vivo, iv, 1 mg/kg, mouse, 2 h, mean of 3 mice, read-out: Blood Concentrations, Mean S.D.
observed property: concentration at 2 h (ng/mL)

[[record]]
smiles_representation = "Cc1nn(C)c2nc(NNC(=O)Nc3cc(Cl)nc(Cl)c3)cc(C(C)C)c12"
unit_info = "ng/mL"
experimental_value = 3


###

- test summary: Microsomal intrinsic clearance
- measurement setup: mouse, liver microsomes, NADPH-dependent Clint (microsomal intrinsic clearance), mouse microsomes, test conc. 1 μM
observed property: microsomal CLint at 1 μM (µL/min/mg)

[[record]]
compound = "C=CCn1nc(C)c2c(C(C)C)cc(NNC(=O)Nc3cc(Cl)nc(Cl)c3)nc21 [Compound 1]"
observed_property = "microsomal CLint at 1 μM"
experimental_value = 1170

[[record]]
compound = "Cc1nn(C)c2nc(N(CC(=O)O)NC(=O)Nc3cc(Cl)nc(Cl)c3)cc(C(C)C)c12 [Compound 2]"
observed_property = "microsomal CLint at 1 μM"
experimental_value = 20

